Assignment: determine reported pIC50 for the given molecules.
target of assay: Lck (Homo sapiens)
Construct: Kinases are expressed as either kinase domains or full length constructs; made in house
Sequence (P06239 whole entry, species assumed, the tested form may be a part): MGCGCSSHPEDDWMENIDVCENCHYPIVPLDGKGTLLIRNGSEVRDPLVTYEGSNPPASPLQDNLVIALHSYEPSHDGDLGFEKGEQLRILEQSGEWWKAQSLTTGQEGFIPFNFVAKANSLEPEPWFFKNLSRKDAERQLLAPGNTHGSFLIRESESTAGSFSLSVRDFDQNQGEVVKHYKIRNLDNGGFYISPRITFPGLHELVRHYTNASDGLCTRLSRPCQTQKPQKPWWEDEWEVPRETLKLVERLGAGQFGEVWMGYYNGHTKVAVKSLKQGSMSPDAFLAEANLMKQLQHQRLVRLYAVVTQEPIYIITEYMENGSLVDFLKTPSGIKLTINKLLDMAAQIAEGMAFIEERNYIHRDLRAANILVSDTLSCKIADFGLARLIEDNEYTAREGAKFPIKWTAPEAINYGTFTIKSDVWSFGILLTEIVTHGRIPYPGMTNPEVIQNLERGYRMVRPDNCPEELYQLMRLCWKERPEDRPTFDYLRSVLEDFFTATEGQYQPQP
measurement notes: Kinase inhibition assay (33P transfer), Lck
Assay type: biochemical
run conditions: read-out: Lck-1
Text: The inhibitor compounds described herein are screened in the following manner. […] Kinases are expressed as either kinase domains or full length constructs fused to glutathione S-transferase (GST) or polyHistidine tagged fusion proteins in either E. colior Baculovirus-High Five expression systems. […]
pIC50: −log10 of the molar value.

Problem: Given the molecule Cc1ccc2c(c1)CCCN2c1ncnc(NCCN2CCOCC2)n1 [Compound 776] , write its reported pIC50.
Result: < 4.90

Problem: Give the reported pIC50 for this molecule. O=c1[nH]c2ccccc2n1-c1ncnc(Nc2ccc(C(F)(F)F)cc2)n1 [Compound 505]
Result: < 4.92

Problem: Please list pIC50 recorded for the molecule CC(C)(C)OC(=O)NCc1cccc(Nc2ncnc(Nc3cc(C(C)(C)C)n[nH]3)n2)c1 [Compound 987]
Result: 5.26 to 6.04

Problem: Provide only the value of recorded pIC50 for COc1cc(Nc2ncnc(-n3c(Nc4ccc(OC(F)(F)F)cc4)nc4ccccc43)n2)cc(OC)c1OC [Compound 1050]
Result: < 5.09

Problem: Answer with the recorded pIC50 for the molecule listed here: COc1cc(Nc2ncnc(-n3c(=O)[nH]c4ccccc43)n2)cc(OC)c1OCCN1CCOCC1 [Compound 1040]
Result: 5.31 to 6.09

Problem: Answer with the recorded pIC50 of CN(c1cccc(Cl)c1)c1ncnc(Nc2ccc(NC(=O)OC(C)(C)C)cc2)n1 [Compound 750] only.
Result: 5.25 to 6.03

Problem: Check the records and state pIC50 for O=C(O)Cc1ccc(Nc2ncnc(Nc3cc(-c4ccccc4)n[nH]3)n2)cc1 [Compound 982]
Result: 5.21 to 5.99

Problem: Answer with the recorded pIC50 for the molecule listed here: COc1cc(Nc2ncnc(-n3c(Nc4cccc5cccnc45)nc4ccccc43)n2)cc(OC)c1OC [Compound 588]
Result: < 5.06

Problem: Give recorded pIC50. CN(c1cccc(Cl)c1)c1ncnc(N[C@@H]2CCN(Cc3ccccc3)C2)n1 [Compound 755]
Result: < 4.94

Problem: Output pIC50 of Cc1ccc2c(c1)CCCN2c1ncnc(Nc2cccc(-c3cnco3)c2)n1 [Compound 774]
Result: 5.20 to 5.98
